target: ScRvs167; test: SPOT peptide array binding signal intensity (averaged, normalized) (arbitrary units (background-subtracted, floor 0; scale differs between SH3 domains)); higher = stronger binding of the SH3 domain to the peptide
# reported SPOT peptide array binding signal intensity; entries follow
Could you keep your reply to the number by itself?

Some binders with recorded SPOT peptide array binding signal intensity:
NHSRSLFSLPGNQQS    17
SPLGAPPPPPHKDHL    1

Now turn to the next binder.
Query: Query (binder): APERAVPILPPRNNV ; field requested: SPOT peptide array binding signal intensity
Result: 966

Recorded values, source the supplement of paper PMC4466140.
